- Measured Target: FGFR1 (Homo sapiens)
- Construct: purchased Panvera/Invitrogen
- Sequence (P11362 22-822, species assumed): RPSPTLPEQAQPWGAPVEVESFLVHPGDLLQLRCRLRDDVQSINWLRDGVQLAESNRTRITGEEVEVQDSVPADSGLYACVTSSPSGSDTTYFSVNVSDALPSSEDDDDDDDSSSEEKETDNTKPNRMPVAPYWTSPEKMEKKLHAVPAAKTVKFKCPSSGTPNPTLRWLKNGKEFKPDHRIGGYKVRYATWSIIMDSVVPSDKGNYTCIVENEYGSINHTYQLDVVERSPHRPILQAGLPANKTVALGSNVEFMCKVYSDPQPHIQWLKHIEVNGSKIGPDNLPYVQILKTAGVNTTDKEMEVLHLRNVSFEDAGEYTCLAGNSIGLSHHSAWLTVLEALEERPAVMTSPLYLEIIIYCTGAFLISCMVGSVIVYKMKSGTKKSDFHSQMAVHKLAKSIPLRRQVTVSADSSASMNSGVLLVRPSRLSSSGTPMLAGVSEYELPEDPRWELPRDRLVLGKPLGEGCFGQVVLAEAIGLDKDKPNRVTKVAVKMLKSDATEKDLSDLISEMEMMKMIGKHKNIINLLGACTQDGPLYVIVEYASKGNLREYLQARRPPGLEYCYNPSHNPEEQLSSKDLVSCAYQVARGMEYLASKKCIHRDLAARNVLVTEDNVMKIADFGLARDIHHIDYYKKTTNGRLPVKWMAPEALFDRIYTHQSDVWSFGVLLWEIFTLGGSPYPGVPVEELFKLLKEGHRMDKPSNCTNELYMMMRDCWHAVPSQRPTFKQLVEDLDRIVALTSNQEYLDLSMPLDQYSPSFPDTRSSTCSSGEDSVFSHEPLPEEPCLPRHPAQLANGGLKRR
- Assay Comment: FGFR1 kinase assay, residual ATP luminescence
- Assay type: biochemical
- Assay Setup: poly(glu4tyr), 2.5 uM ATP, 60 minutes at 37 C
Would you mind telling me the reported IC50 of each entry?
Give bare numbers, in µM.

| Compound | IC50 / µM |
| --- | --- |
| O=C(Nc1cnc(Nc2ccc(S(=O)(=O)CCCN3CCCC3)cc2)nc1)c1cc(O)ccc1Cl [drawing 206] | 7.5 |

Below is a list of compounds. For each, state its recorded IC50.
1. O=C(NCCN1CCCC1)c1csc(Nc2ncc(NC(=O)c3cc(O)ccc3Cl)cn2)n1 [drawing 209]
2. O=C(Nc1cnc(Nc2ccc(C(=O)N3CCNCC3)cc2)nc1)c1cc(O)ccc1Cl [drawing 205]
3. CN1CCN(C(=O)c2ccc(Nc3ncc(NC(=O)c4cc(O)ccc4Cl)cn3)cc2)CC1 [drawing 207]
4. O=C(NCCN1CCCC1)c1ccc(Nc2ncc(NC(=O)c3cc(O)ccc3Cl)cn2)cn1 [drawing 204]
5. O=C(Nc1cnc(Nc2ccc(OCCN3CCCC3)cc2)nc1)c1cc(O)ccc1Cl [drawing 200]

Solution:
2.1
5.4
9.4
1
20
